Target: Gal6S(b1-4)GlcNAc
Experiment: glycan array binding signal (z-score within array); higher = stronger binding
Conditions: glycan notation: IUPAC condensed, linker removed
Only a selection was taken, and the strongest signals are over-represented in it overall.
observed-property: glycan array binding signal (z-score)

Ask | # query: glycan array binding signal (z-score) of entry L-Selectin (Homo sapiens), P14151 (protein) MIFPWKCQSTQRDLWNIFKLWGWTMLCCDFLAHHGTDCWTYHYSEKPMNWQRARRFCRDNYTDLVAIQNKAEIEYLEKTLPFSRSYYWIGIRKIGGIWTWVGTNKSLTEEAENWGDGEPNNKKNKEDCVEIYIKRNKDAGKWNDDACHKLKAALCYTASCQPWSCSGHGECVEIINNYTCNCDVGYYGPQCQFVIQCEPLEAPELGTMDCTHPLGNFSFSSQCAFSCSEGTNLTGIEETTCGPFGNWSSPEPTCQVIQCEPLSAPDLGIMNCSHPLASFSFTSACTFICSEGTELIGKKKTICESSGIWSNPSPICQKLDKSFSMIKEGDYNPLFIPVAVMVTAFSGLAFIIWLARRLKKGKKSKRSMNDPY
Reply | -0.078

Ask | Consider next the binder Gal 8 (Homo sapiens), O00214_1 (protein) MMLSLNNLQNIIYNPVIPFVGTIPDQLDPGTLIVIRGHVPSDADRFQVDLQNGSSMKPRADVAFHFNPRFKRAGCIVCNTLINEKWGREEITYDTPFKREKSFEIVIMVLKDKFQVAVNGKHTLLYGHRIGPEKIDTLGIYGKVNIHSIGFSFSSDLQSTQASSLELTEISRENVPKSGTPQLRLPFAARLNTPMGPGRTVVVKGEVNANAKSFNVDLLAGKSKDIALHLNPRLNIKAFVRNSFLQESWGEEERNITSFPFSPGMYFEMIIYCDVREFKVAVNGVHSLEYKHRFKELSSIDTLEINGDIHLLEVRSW in the same way.
Reply | -0.172
